Data credit: patent US20120010075A1

Exercise: for every item that follows, state its recorded inhibition of growth at 0.05 µg/mL.
Test system: Leptosphaeria nodorum (LEPTNO)
Test: In vitro fungitoxicity of hydrazones with and without copper towards Leptosphaeria nodorum (Example 26)
Assay type: cell-based
Conditions: Parastagonospora nodorum, 72 h, compound 0.05 μg/mL, copper-minus medium, 72 h at 25° C.; read-out: LEPTNO % Inhn. Minus Copper Observed
Answers are plain numbers, in %.

Example cases with answers are listed next.
Supply measured inhibition of growth at 0.05 µg/mL of C/C(=N\NC(=O)c1ccc(C)cc1C)c1ccccc1O [Example 29] in your reply. 0

Supply measured inhibition of growth at 0.05 µg/mL of O=C(N/N=C/c1cc(Cl)cc(Cl)c1O)c1cccc(Oc2ccccc2)c1 [Example 46] in your reply. 20.5

Supply measured inhibition of growth at 0.05 µg/mL of O=C(N/N=C/c1cc(Br)cc(Br)c1O)c1cccc(F)c1 [Example 119] in your reply. 2.2

Quick request: inhibition of growth at 0.05 µg/mL for each listed item, please.
1. O=C(N/N=C/c1cc(Cl)ccc1O)c1ccccc1 [Example 20]
2. COc1cccc(C(=O)N/N=C/c2cc(Br)cc(Br)c2O)c1C [Example 108]
3. COc1ccc(O)c(/C(C)=N/NC(=O)c2ccc(C)cc2)c1 [Example 264]

1: 2.8; 2: 21.3; 3: 6

Quick request: inhibition of growth at 0.05 µg/mL for each listed item, please.
1. Cc1cccc(C(=O)N/N=C/c2cc(Cl)cc(Cl)c2O)c1O [Example 73]
2. C/C(=N\NC(=O)c1ccccc1C)c1cc(Cl)cc(Cl)c1O [Example 137]
3. Cc1ccc(/C=N/NC(=O)c2ccccc2)c(O)c1 [Example 234]
4. C/C(=N\NC(=O)c1ccccc1)c1cc(Br)ccc1O [Example 287]
5. CCOc1ccc(C(=O)N/N=C/c2cc(Br)cc(Br)c2O)cc1 [Example 104]
6. O=C(N/N=C/c1cc(Cl)cc([N+](=O)[O-])c1O)c1ccccc1 [Example 150]
7. C/C(=N\NC(=O)Cc1ccc(F)cc1)c1cc(Cl)cc(Cl)c1O [Example 17]
8. C/C(=N\NC(=O)c1cccc(Cl)c1)c1cccc([N+](=O)[O-])c1O [Example 273]

8.6
4.5
0
0
27.7
10
9.4
0.4

Quick request: inhibition of growth at 0.05 µg/mL for each listed item, please.
1. COc1ccc(O)c(/C(C)=N/NC(=O)c2ccc(Cl)cc2)c1 [Example 267]
2. CC(C)(C)c1ccc(C(=O)N/N=C/c2cc(Cl)cc(Cl)c2O)cc1 [Example 87]
3. COc1cc(Br)cc(/C=N/NC(=O)c2ccc(Cl)cc2)c1O [Example 205]
4. C/C(=N\NC(=O)c1ccc(F)cc1)c1cc(Cl)cc(Cl)c1O [Example 59]
5. C/C(=N\NC(=O)c1ccccc1Br)c1ccccc1O [Example 64]
6. COc1ccc(/C=N/NC(=O)c2ccccc2)c(O)c1 [Example 147]
7. CN(C)c1ccc(C(=O)N/N=C/c2cc(Cl)cc(Cl)c2O)cc1 [Example 103]

1. 5.7
2. 8.1
3. 15.4
4. 12.8
5. 0
6. 0
7. 17.9
